- TARGET: recombinant V617F mutant JAK2 (aa 532-1132) (Homo sapiens, UniProt O60674, V617F)
- Sequence (O60674 532-1132 V617F): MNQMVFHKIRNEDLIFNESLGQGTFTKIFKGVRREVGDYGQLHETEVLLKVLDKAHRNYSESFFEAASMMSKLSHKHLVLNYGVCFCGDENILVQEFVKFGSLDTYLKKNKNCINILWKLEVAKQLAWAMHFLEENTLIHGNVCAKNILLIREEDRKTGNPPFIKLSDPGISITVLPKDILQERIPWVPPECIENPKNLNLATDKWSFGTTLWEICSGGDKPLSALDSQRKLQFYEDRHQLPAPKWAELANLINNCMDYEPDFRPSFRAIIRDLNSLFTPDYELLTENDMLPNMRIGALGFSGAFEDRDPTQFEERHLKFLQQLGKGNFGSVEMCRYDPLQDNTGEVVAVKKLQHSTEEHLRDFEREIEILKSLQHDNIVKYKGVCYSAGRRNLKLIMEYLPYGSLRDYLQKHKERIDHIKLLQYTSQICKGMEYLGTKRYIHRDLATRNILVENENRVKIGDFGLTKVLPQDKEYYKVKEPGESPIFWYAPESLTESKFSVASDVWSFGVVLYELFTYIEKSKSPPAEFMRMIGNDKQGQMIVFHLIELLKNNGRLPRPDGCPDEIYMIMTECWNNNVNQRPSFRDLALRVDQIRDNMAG
- ASSAY_REMARKS: Radiometric kinase assay, recombinant V617F mutant JAK2
- SETTINGS: read-out: IC50, kinase activity of mutant JAK2 (V617F); JAK2-V617F aa 532-1132, GST-Abltide substrate, 20 μM ATP
ASSAY_METRIC: IC50
State the value, then name its unit.

Please report the measured IC50 for N#C/C(=C/c1ccc(O)c(O)c1)C(=O)NCc1ccccc1 [AG490] 33.1 µM
